Cited source for all entries: patent US7074789B2

# measured on: Itk (Homo sapiens)
# Construct: Kinases are expressed as either kinase domains or full length constructs; made in house
# Sequence (Q08881 whole entry, species assumed, the tested form may be a part): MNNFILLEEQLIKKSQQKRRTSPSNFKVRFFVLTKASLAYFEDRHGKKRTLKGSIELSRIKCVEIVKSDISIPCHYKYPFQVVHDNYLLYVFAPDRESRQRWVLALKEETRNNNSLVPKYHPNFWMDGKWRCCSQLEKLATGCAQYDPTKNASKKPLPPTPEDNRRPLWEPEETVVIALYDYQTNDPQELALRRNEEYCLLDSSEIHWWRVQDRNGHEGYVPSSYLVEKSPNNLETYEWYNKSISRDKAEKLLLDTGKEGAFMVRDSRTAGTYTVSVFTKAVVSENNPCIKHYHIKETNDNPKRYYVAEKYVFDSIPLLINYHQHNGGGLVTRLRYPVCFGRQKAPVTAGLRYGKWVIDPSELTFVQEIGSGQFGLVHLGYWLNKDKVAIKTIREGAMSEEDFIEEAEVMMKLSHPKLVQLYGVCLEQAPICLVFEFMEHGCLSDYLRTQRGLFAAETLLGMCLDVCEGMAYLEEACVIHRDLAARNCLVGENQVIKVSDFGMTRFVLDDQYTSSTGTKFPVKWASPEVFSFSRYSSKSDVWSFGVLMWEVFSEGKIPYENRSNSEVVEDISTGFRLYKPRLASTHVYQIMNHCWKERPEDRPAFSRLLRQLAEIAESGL
# method summary: Kinase inhibition assay (33P transfer), Itk
# Assay type: biochemical
# conditions: Table 3; read-out: Itk-1
# Method: The inhibitor compounds described herein are screened in the following manner. […] Kinases are expressed as either kinase domains or full length constructs fused to glutathione S-transferase (GST) or polyHistidine tagged fusion proteins in either E. colior Baculovirus-High Five expression systems. […] Kinase activity and inhibition are measured essentially by established protocols (Braunwalder et al., 1996). […]
attribute measured: IC50

>>> recorded_result("COc1cc(Nc2ncnc(Nc3ccc(O)cc3)n2)cc(OC)c1OC")
"1.08 to 6.5 µM"
>>> recorded_result("COc1cc(Nc2ncnc(Nc3ccc(C)c(O)c3)n2)cc(OC)c1OC")
"1.04 to 6.26 µM"
>>> recorded_result("COc1ccc(Nc2ncnc(N(C/C=C/c3ccccc3)c3ccc(Cl)cc3)n2)cc1OC")
"> 9.49 µM"
>>> recorded_result("COc1cc(Nc2ncnc(Nc3ccc(C(N)=O)cc3)n2)cc(OC)c1OC")
"> 11.4 µM"
>>> recorded_result("COc1ccc(Nc2ncnc(-n3c(N)nc4ccccc43)n2)cc1O")
"1.14 to 6.87 µM"
>>> recorded_result("COc1cc(Nc2ncnc(-n3cccc3)n2)cc(OC)c1OC")
"> 13.7 µM"
>>> recorded_result("COc1cc(Nc2ncnc(N3CCc4ccccc43)n2)cc(OC)c1OC")
"> 11.9 µM"
>>> recorded_result("O=c1[nH]c2ccccc2n1-c1ncnc(Nc2cccc(-c3cnco3)c2)n1")
"9.42 to 12.1 µM"
>>> recorded_result("COc1cc(Nc2ncnc(Nc3cccc4ccccc34)n2)cc(OC)c1OC")
"> 11.2 µM"
>>> recorded_result("COc1cc(Nc2ncnc(-n3cc(C#N)c4ccccc43)n2)cc(OC)c1OC")
"> 11.2 µM"
>>> recorded_result("Nc1ncnc(Nc2ccc(C3CCCCC3)cc2)n1")
"> 16.7 µM"
>>> recorded_result("c1csc(-c2ncnc(Nc3ccc(N4CCOCC4)cc3)n2)c1")
"> 13.3 µM"
>>> recorded_result("COc1cc(Nc2ncnc(-n3c(=O)oc4ccccc43)n2)cc(OC)c1OC")
"> 11.4 µM"
>>> recorded_result("COc1ccc(Nc2ncnc(Nc3cc(OC)c(OC)c(OC)c3)n2)cc1")
"> 11.7 µM"
>>> recorded_result("CNc1nc2ccccc2n1-c1ncnc(Nc2cc(OC)c(OC)c(OC)c2)n1")
"> 11 µM"
>>> recorded_result("COc1cc(Nc2ncnc(NC3CC3c3ccccc3)n2)cc(OC)c1OC (centres unmarked)")
"> 11.4 µM"
>>> recorded_result("COCCOc1ccc(Nc2ncnc(-n3c(N)nc4ccccc43)n2)cc1OCCOC")
"> 9.97 µM"
>>> recorded_result("COc1ccc(Nc2ncnc(Nc3ccc(OCc4ccccc4)cc3)n2)cc1")
"> 11.3 µM"
>>> recorded_result("COc1cc(Nc2ncnc(Nc3ccc(N)cc3)n2)cc(OC)c1OC")
"> 12.2 µM"
>>> recorded_result("COc1cc(Nc2ncnc(Nc3nc4ccc(F)cc4s3)n2)cc(OC)c1OC")
"> 10.5 µM"
>>> recorded_result("COc1cc(Nc2ncnc(Nc3[nH]ncc3-c3cccs3)n2)cc(OC)c1OC")
"> 10.6 µM"
>>> recorded_result("C#Cc1cccc(Nc2ncnc(Nc3ccc(OC)c(OC)c3)n2)c1")
"> 13 µM"
>>> recorded_result("ClCc1ccccc1Nc1ncnc(-n2cccc2)n1")
"> 15.7 µM"
>>> recorded_result("OCc1cccc(Nc2ncnc(Nc3cc(-c4ccco4)n[nH]3)n2)c1")
"1.14 to 6.87 µM"
>>> recorded_result("COc1cc(Nc2ncnc(Cl)n2)cc(OC)c1OC")
"> 15.2 µM"
>>> recorded_result("NCc1ccc(Nc2ncnc(Nc3cc(-c4ccco4)n[nH]3)n2)cc1")
"1.15 to 6.89 µM"
>>> recorded_result("COc1cc(Nc2ncnc(N)n2)cc(OC)c1OC [Compound 925]")
"> 16.2 µM"
>>> recorded_result("COc1cc(Nc2ncnc(Nc3ccc(OCc4ccccc4)cc3)n2)cc(OC)c1")
"> 10.5 µM"
>>> recorded_result("NC(=O)c1ccc(Nc2ncnc(-c3cccs3)n2)cc1")
"> 15.1 µM"
>>> recorded_result("COc1cc(Nc2ncnc(Nc3cc(C)nn3C)n2)cc(OC)c1OC")
"> 12.1 µM"
>>> recorded_result("COc1cc(Nc2ncnc(Nc3cc(C)ccc3C)n2)cc(OC)c1OC")
"> 11.8 µM"
>>> recorded_result("COc1cc(Nc2ncnc(Nc3ccc(C)cc3F)n2)cc(OC)c1OC")
"> 11.7 µM"
